Measured Concentration, listed per entry.
# target-of-assay: 2-5A-dependent ribonuclease (Mus musculus)
# method-description: Molar concentration required to displace 50% of the radiolabeled probe from 2-5A (Adenosine dependent endoribonuclease) in endonuclease-nitrocellulose complex
The response must contain the number and no unit.

{"columns": ["compound", "Concentration"],
 "data": [
  ["Nc1ncnc2c1ncn2C1O[C@H](COP(=O)(O)O[C@H]2C(n3cnc4c(N)ncnc43)O[C@H](COP(=O)(O)O[C@H]3C(n4cnc5c(N)ncnc54)O[C@H](COP(=O)(O)O[C@H]4C(n5cnc6c(N)ncnc65)O[C@H](COP(=O)(O)O[C@H]5C(n6cnc7c(N)ncnc76)O[C@H](CO)[C@H]5O)[C@H]4O)[C@H]3O)[C@H]2O)[C@@H](O)[C@H]1O (stereo partly drawn)", "1.3e-08"],
  ["Nc1ncnc2c1ncn2C1O[C@H](COP(=O)(O)O[C@H]2C(n3cnc4c(N)ncnc43)O[C@H](COP(=O)(O)O[C@H]3C(n4cnc5c(N)ncnc54)O[C@H](COP(=O)(O)O[C@H]4C(n5cnc6c(N)ncnc65)O[C@H](COP(=O)(O)O[C@H]5C(n6cnc7c(N)ncnc76)O[C@H](COP(=O)(O)O)[C@H]5O)[C@H]4O)[C@H]3O)[C@H]2O)[C@@H](O)[C@H]1O (stereo partly drawn)", "9e-10"],
  ["Nc1ncnc2c1ncn2C1O[C@H](COP(=O)(O)O[C@H]2C(n3cnc4c(N)ncnc43)O[C@H](COP(=O)(O)O)[C@H]2O)[C@@H](O)[C@H]1O (stereo partly drawn)", "2e-05"],
  ["O=P(O)(O)OC[C@H]1OC(n2cnc3c(O)ncnc32)[C@H](OP(=O)(O)OC[C@H]2OC(n3cnc4c(O)ncnc43)[C@H](OP(=O)(O)OC[C@H]3OC(n4cnc5c(O)ncnc54)[C@H](O)[C@@H]3O)[C@@H]2O)[C@@H]1O (stereo partly drawn)", "3.3e-06"],
  ["Nc1ncnc2c1ncn2[C@@H]1O[C@H](COP(=O)(O)O[C@@H]2[C@H](O)[C@@H](COP(=O)(O)O[C@@H]3[C@H](O)[C@@H](COP(=O)(O)O)O[C@H]3n3cnc4c(N)ncnc43)O[C@H]2n2cnc3c(N)ncnc32)[C@@H](O)[C@H]1O (stereo in doubt; 11)", "2e-09"]
]}

Which value of Concentration has been reported for Nc1ncnc2c1ncn2[C@@H]1O[C@H](COP(=O)(O)O[C@@H]2[C@H](O)[C@@H](COP(=O)(O)O)O[C@H]2n2cnc3c(N)ncnc32)[C@@H](O)[C@H]1OP(=O)(O)O in the records?
4e-07

Which value of Concentration has been reported for O=P(O)(O)OP(=O)(O)OP(=O)(O)OCC1OC(n2cnc3c(O)ncnc32)C(OP(=O)(O)OCC2OC(n3cnc4c(O)ncnc43)C(OP(=O)(O)OC[C@H]3OC(n4cnc5c(O)ncnc54)[C@H](O)[C@@H]3O)C2O)C1O (stereo partly drawn) in the records?
2.6e-07

Which value of Concentration has been reported for Nc1ncnc2c1ncn2[C@@H]1O[C@H](COP(=O)(O)O[C@@H]2[C@H](O)[C@@H](COP(=O)(O)O[C@@H]3[C@H](O)[C@@H](COP(=O)(O)O[C@@H]4[C@H](O)[C@@H](CO)O[C@H]4n4cnc5c(N)ncnc54)O[C@H]3n3cnc4c(N)ncnc43)O[C@H]2n2cnc3c(N)ncnc32)[C@@H](O)[C@H]1O in the records?
2.2e-08
